ASSAY_TEXT: In vivo stability of iodinated HLE inhibitors (thyroid uptake)
Parameters: species or system male Wistar rats
TEST_CONDITIONS: i.v. injection, 24 hours
Experimental: The in vivo stability of radioiodinated HLE inhibitors was monitored by determination of the percentage uptake in the thyroid as a function of time after administration. Thus radioiodinated compounds and ^123I free iodide were injected into male Wistar rats. The percentage of injected dose distributing to the thyroid was calculated by dissection at 4 and 24 hours post injection and counting.
QUANTITY_NAME: % dose in Thyroid (% dose)
Dear colleague, please return just the value in % dose, with no unit written.

Some compounds with known % dose in Thyroid results, for comparison:
# COMPOUND, QUANTITY_NAME, UNIT_LABEL, ENDPOINT_VALUE
records = [
    ("CCC1(CC)C(=O)N(C(=O)NCCc2ccc(O)c(I)c2)C1S(=O)(=O)CCOC (centres unmarked)", "% dose in Thyroid", "% dose", 2.4),
    ("CCC[C@@H](NC(=O)N1C(=O)C(CC)(CC)[C@@H]1Oc1ccc(C(=O)N2CCN(C)CC2)cc1)c1ccc(I)cc1", "% dose in Thyroid", "% dose", 0.6),
    ("CCC1(CC)C(=O)N(C(=O)NCc2ccc(I)cc2)C1Oc1ccc(C(=O)N2CCN(C)CC2)cc1 (racemic) [Compound 4]", "% dose in Thyroid", "% dose", 0.9),
    ("CCC1(CC)C(=O)N(C(=O)NCc2ccc(I)cc2)C1Oc1ccc(C(=O)N2CCN(C)CC2)cc1 (single isomer, unassigned) [Compound 4a]", "% dose in Thyroid", "% dose", 0.3),
]

Next up:
## Input Can you share its % dose in Thyroid? I mean this compound: [123IH] [[^123I]-iodide, reference compound]
## Output 22.2
